biological target: hERG channel (Homo sapiens, UniProt Q12809); construct: hERG-overexpressing HEK cells; assay: automated patch clamp (PatchLiner), hERG tail current
Sequence (Q12809 whole entry): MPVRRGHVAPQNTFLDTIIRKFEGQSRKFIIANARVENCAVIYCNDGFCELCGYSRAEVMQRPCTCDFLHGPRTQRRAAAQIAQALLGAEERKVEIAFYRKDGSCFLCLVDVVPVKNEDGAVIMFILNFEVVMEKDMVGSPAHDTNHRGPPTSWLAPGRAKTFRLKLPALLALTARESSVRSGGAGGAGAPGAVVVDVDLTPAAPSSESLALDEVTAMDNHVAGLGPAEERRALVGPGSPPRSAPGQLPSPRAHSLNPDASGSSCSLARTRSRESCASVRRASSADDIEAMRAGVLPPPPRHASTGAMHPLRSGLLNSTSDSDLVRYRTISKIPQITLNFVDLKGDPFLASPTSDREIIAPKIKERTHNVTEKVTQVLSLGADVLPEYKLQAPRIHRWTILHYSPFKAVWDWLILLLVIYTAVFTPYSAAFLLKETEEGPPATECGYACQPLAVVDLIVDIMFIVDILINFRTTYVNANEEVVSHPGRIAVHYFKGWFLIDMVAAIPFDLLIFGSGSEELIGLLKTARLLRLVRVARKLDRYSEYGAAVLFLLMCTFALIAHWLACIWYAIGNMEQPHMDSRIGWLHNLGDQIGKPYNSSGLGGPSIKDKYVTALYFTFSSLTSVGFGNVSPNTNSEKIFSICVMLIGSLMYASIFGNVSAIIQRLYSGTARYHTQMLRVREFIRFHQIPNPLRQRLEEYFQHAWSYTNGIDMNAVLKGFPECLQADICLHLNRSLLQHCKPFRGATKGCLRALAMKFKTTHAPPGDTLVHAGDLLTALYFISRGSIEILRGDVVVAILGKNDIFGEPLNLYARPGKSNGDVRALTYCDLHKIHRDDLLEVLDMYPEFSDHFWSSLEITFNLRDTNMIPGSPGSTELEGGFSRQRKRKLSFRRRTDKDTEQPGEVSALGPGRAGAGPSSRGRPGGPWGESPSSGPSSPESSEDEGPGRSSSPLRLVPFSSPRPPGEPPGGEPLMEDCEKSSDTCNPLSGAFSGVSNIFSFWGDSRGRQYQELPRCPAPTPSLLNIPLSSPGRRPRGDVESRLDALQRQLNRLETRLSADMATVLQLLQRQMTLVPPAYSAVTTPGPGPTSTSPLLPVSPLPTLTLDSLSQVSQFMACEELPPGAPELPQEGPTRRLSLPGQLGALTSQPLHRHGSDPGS
measure.name: IC50 (µM)
The figure you give is taken to be in µM; do not add the unit.

Enquiry: Enter reported IC50 observed with hERG channel (Homo sapiens, UniProt Q12809) for COc1ccc(-c2oc3cc(OC)c(OC)c(O)c3c(=O)c2OC)cc1O [vitexicarpin]
Return: 35.4

These entries and their values trace back to paper PMC12162337.
